# STUDY_TARGET: hSFRP-1 (Homo sapiens, UniProt Q8N474)
# Construct: expressed in transfected cells; host or cells: U2OS osteosarcoma cells (ATCC, HTB 96), transient co-transfection with Wnt 3, Wnt3A or Wnt 1, 16x TCF-tk-Luciferase reporter and CMV-beta-gal
# Sequence (Q8N474 32-314): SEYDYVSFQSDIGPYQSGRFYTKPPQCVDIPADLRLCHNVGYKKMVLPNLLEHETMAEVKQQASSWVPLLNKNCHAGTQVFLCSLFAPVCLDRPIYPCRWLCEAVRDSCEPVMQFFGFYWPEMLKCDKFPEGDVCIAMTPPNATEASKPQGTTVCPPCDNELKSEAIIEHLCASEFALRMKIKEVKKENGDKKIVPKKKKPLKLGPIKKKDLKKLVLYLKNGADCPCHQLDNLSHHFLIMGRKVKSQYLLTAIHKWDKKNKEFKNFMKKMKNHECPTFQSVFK
# ASSAY_REMARKS: Cell-Based Assay for In Vitro Measurement of SFRP-1/SARP2 Antagonist Activity (U2OS cells, 16x TCF-tk-Luciferase reporter, Wnt + hSFRP-1 co-transfection)
# CONDITION_DESCRIPTION: initial single dose screening at 10 μM, luciferase reporter activity, fold induction over SFRP-1 control
MEASUREMENT_TYPE: fold induction at 10 µM
Answers are plain numbers.

Past entries and their recorded results:
COC(=O)c1cc(OC)c(OC)cc1NC(=O)CC1SC(=N)NC1=O (centres unmarked) ... 1
N=C1NC(=O)C(CC(=O)NCc2cccc(C(F)(F)F)c2)S1 (centres unmarked) ... 1.1
COC(=O)c1c(NC(=O)CC2SC(=N)NC2=O)sc2c1CCCC2 (centres unmarked) ... 1.3
COC(=O)c1sc(C(C)(C)C)cc1NC(=O)CC1SC(=N)NC1=O (centres unmarked) ... 1.5
CSc1cccc(NC(=O)CC2SC(=N)NC2=O)c1 (centres unmarked) ... 1.5
N=C1NC(=O)C(CC(=O)Nc2sc3c(c2C(N)=O)CCCC3)S1 (centres unmarked) ... 1
N=C1NC(=O)C(CC(=O)NCc2ccccc2Cl)S1 (centres unmarked) ... 1.2
CCOC(=O)c1c(NC(=O)CC2SC(=N)NC2=O)sc2c1CCC2 (centres unmarked) ... 1.6

Please state fold induction at 10 µM for every molecule in the list that follows.
1. CC(=O)c1cccc(NC(=O)CC2SC(=N)NC2=O)c1 (centres unmarked)
2. N=C1NC(=O)C(CC(=O)Nc2cccc(OC(F)(F)F)c2)S1 (centres unmarked)
3. CCOC(=O)c1c(NC(=O)CC2SC(=N)NC2=O)sc2c1CCCC2 (centres unmarked)

Out:
1: 1.2; 2: 1.7; 3: 1.4

Count: 4. Required value per item: fold induction at 10 µM.
1. N=C1NC(=O)C(CC(=O)Nc2ccccc2)S1 (centres unmarked)
2. CCOC(=O)c1cccc(NC(=O)CC2SC(=N)NC2=O)c1 (centres unmarked)
3. N=C1NC(=O)C(CC(=O)Nc2cccc(Cl)c2Cl)S1 (centres unmarked)
4. CCOC(=O)c1c(NC(=O)CC2SC(=N)NC2=O)sc(Br)c1CNc1ccccc1 (centres unmarked)

Out:
[1.3, 1.7, 1.2, 2.7]
